Test system: SK-MEL-2 melanoma
Assay: NCI tumour cell line growth inhibition, 48 h
MEASURE_NAME: TGI

[[record]]
molecule = "CC1=NN(c2cccc(Cl)c2)C2(SCC(=O)N2c2nc3ccccc3s2)/C1=C\\c1ccc(N(C)C)cc1 (centres undefined)"
measure_name = "TGI"
meas_value = "57.5 µM"

[[record]]
molecule = "COc1cc(S(=O)(=O)Nc2nc(-c3ccc(N4C(=O)/C(=C/C=C/c5ccccc5)N=C4c4ccccc4)cc3)cs2)ccc1Cl"
measure_name = "TGI"
meas_value = "> 100 µM"

[[record]]
molecule = "CNC/C(Cl)=N/S(=O)(=O)c1ccc(C)cc1"
measure_name = "TGI"
meas_value = "34.4 µM"

[[record]]
molecule = "CNC(=S)NC(=O)c1c(Cl)n(C(=O)OC(C)(C)C)c2ccccc12"
measure_name = "TGI"
meas_value = "> 100 µM"

[[record]]
molecule = "COc1ccc(/C(=N\\NC(=O)C(=O)NN)C(c2ccc(OC)cc2)C2(O)C(=O)Nc3ccccc32)cc1 (centres undefined)"
measure_name = "TGI"
meas_value = "> 100 µM"

[[record]]
molecule = "CCCCCCc1ccc(C(=O)NO)cc1"
measure_name = "TGI"
meas_value = "> 100 µM"

[[record]]
molecule = "C/C=C1\\C=C(OC)CN(CCc2c[nH]c3ccccc23)C1"
measure_name = "TGI"
meas_value = "> 100 µM"

[[record]]
molecule = "Cc1nc2sc(C(=O)Nc3cccc4ccccc34)c(N)c2cc1C(O)c1ccccc1 (centres undefined)"
measure_name = "TGI"
meas_value = "16.9 µM"

[[record]]
molecule = "CCn1c(SCC(=O)N/N=C/c2ccccc2)nc2ccccc2c1=O"
measure_name = "TGI"
meas_value = "> 46.4 µM"

[[record]]
molecule = "CC[C@H](Nc1c(O)c2c(c(O)c1Cl)C(=O)C=CC2=O)C(=O)OC"
measure_name = "TGI"
meas_value = "> 10 µM"

[[record]]
molecule = "COc1ccc(-c2cc(-c3ccc(Cl)cc3)nc(SCCCC(=O)NO)n2)cc1"
measure_name = "TGI"
meas_value = "6.94 µM"

[[record]]
molecule = "O=c1[nH]/c(=C/c2ccc(OCc3ccccc3)cn2)c(=O)[nH]/c1=C/c1ccc(F)cc1"
measure_name = "TGI"
meas_value = "> 52.2 µM"

[[record]]
molecule = "COc1ccc(-c2cc(=O)c3ccccc3o2)cc1N"
measure_name = "TGI"
meas_value = "> 100 µM"

[[record]]
molecule = "O=C1CC(=O)N(C(=O)c2nn(-c3ccc(Cl)cc3)cc2O)N1"
measure_name = "TGI"
meas_value = "> 100 µM"

[[record]]
molecule = "CCCN(CCC)c1ccc(/C=C/c2ccc3cc(OCC)ccc3n2)cc1"
measure_name = "TGI"
meas_value = "> 100 µM"

[[record]]
molecule = "Nc1c2ccccc2nc2ccc3c(=O)cc(-c4ccccc4)oc3c12"
measure_name = "TGI"
meas_value = "3.65 µM"

[[record]]
molecule = "O=C1[C@H]2ON(c3ccccc3)C(c3ccccc3)[C@H]2C(=O)N1c1ccc(Cc2ccc(N3C(=O)[C@@H]4ON(c5ccccc5)C(c5ccccc5)[C@@H]4C3=O)cc2)cc1 (some centres undefined)"
measure_name = "TGI"
meas_value = "> 100 µM"

[[record]]
molecule = "COC(=O)c1ccccc1C1CN=NC12Cc1ccccc1C2=O (centres undefined)"
measure_name = "TGI"
meas_value = "> 100 µM"

[[record]]
molecule = "Nc1c2c(c(O)c3c1=C(CO)C=N3)=NCCS2"
measure_name = "TGI"
meas_value = "0.658 µM"

[[record]]
molecule = "Cn1c(=O)n2n(c1=O)C(S(=O)(=O)c1ccccc1)C2 (centres undefined)"
measure_name = "TGI"
meas_value = "> 100 µM"

[[record]]
molecule = "COc1cccc(C2c3cc4c(cc3OC(N3CCOCC3)C2C)OCO4)c1OC (centres undefined)"
measure_name = "TGI"
meas_value = "25.5 µM"

[[record]]
molecule = "O=C1/C(=C/c2ccc(OC(=O)c3ccccc3)cc2)CCC/C1=C\\c1ccc(OC(=O)c2ccccc2)cc1"
measure_name = "TGI"
meas_value = "> 100 µM"

[[record]]
molecule = "O=C(c1ccccc1)c1c(-c2ccccc2)sc2nc3ccccc3nc12"
measure_name = "TGI"
meas_value = "> 100 µM"

[[record]]
molecule = "C[C@@H](O)[C@H](NC(=O)N[C@@H](CC(N)=O)c1nc([C@@H](N)CO)no1)C(=O)O"
measure_name = "TGI"
meas_value = "> 100 µM"

